Each recorded value in this set is attributed to the supplement of paper PMC10567573.

B1: DYRK1B (parent)
chain: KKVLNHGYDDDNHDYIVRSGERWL

Variants of: B1
Assay Details: protein stability index of a GFP-peptide fusion (GPS, HEK-293T) (PSI 1-6); higher = more stable;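 note: lentivirally expressed fusions sorted by FACS into six bins by GFP to DsRed ratio, PSI derived from sequencing read proportions per bin multiplied by bin number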
Run Conditions: c terminus: a fixed tail appended
Given measured protein stability index, output true (1) if it is greater than or equal to 3 and false (0) if not.

KKVLNHGYDDDNHDYIVREGERWL [S19E]    true (1)
KKVLNHGYDDDNHDDIVRSGERWL [Y15D]    true (1)

Q: Form field: protein stability index at least 3? Entry: KKVLNHGIDDDNHDYIVRSGERWL [Y8I]
Ans: true (1)

Q: Form field: protein stability index at least 3? Entry: KKVLNHGYDDDNHDYQVRSGERWL [I16Q]
Ans: true (1)

Q: Form field: protein stability index at least 3? Entry: KKVLNHGYDDDNHDYIVRSGERWC [L24C]
Ans: true (1)
